Molecular target: ACE2 (human, UniProt Q9BYF1 18-740)
Sequence (Q9BYF1 18-740 limits assumed): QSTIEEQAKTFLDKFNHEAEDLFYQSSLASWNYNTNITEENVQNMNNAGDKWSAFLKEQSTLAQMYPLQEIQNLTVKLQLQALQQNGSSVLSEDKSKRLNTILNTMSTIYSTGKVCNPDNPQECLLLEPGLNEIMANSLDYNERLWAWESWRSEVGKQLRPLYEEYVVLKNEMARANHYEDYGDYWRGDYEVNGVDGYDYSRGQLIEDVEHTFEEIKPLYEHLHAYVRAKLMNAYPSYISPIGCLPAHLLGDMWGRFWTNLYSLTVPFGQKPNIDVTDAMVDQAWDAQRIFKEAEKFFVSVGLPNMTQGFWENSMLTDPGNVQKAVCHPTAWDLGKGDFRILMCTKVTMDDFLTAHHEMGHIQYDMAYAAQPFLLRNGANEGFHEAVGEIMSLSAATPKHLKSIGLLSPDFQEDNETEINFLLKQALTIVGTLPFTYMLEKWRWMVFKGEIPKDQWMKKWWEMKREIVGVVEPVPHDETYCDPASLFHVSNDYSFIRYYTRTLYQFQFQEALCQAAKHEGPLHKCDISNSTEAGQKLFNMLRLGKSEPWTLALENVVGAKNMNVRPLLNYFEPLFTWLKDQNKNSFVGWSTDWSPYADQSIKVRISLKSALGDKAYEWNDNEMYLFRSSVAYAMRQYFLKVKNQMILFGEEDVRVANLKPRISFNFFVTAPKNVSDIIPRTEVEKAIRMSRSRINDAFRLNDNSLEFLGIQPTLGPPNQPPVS
reported_metric: koff (s⁻¹)
API: value field is a number in s⁻¹; no unit string.

[
  {
    "binder": "ACE2 variant antibody 4-25 (VHH) VHH: EVQLVESGGGLVQPGGSLRLSCAASGGTFSRYAMGWFRQAPGKEREWVSAVDSGGSTYYADSVKGRFTISADNSKNTAYLQMNSLKPEDTAVYYCAASPSLRSAWQWGQGTLVTVSS",
    "unit_of_measurement": "s⁻¹",
    "koff": 0.00303
  }
]

Exercise: Using the record for ACE2 variant antibody 4-74 (VHH) VHH: EVQLVESGGGLVQPGGSLRLSCAASGLTFSDDTMGWFRQAPGKEREFVAAVSWSGGNTYYADSVKGRFTISADNSKNTAYLQMNSLKPEDTAVYYCATDPPLFWGQGTLVTVSS , report its koff.
Solution: 0.00285
